# TESTED TARGET: Galanin receptor type 3 (Homo sapiens) (UniProt O60755)
# ASSAY NAME: human galanin receptor 3 blockers, IC50 – cell-based, fluorescence, dose response, late-stage follow-up (AID 743095)
# CONDITION PARAMETERS: GalR3 cell line, fluorescence antagonist assay
Active and inactive are the calls of the source. No rule for the calls is given here.
Listed compounds paired with reported IC50
READOUT TYPE: IC50

compound=CCOC(=O)c1[nH]c2ccc(OC)cc2c1NS(=O)(=O)c1ccc(Cl)s1 result_value="3.14 µM"
compound=O=C(COc1ccc(C(=O)c2ccccc2)cc1)Nc1cccnc1 result_value="1.24 µM"
compound=Cc1cc(C)nc(SCC(=O)Nc2ccnc3ccccc23)n1 result_value="1.17 µM"
compound=CCOc1nc(C#N)nc(N2CCCCC2)n1 result_value="2.81 µM"
compound="CC1CC(=O)NN=C1c1ccc(N)c([N+](=O)[O-])c1 (stereo not drawn)" result_value="0.596 µM"
compound="O=C(Nc1nc(-c2ccc(Cl)cc2Cl)cs1)c1ccc(OCC2CCCO2)cc1 (stereo not drawn)" result_value="1.08 µM"
compound=Cc1nn(C)c(Cl)c1NC(=O)OCc1ccc(Cl)cc1Cl result_value="4.16 µM"
compound=CCN(CC)S(=O)(=O)c1cc(NC(=O)CNc2cccc(S(=O)(=O)N3CCOCC3)c2)ccc1C result_value="3.56 µM"
compound="CC(C)(C)CN1CCN(Cc2nc(-c3ccc(F)cc3)cs2)CC1CCO (stereo not drawn)" result_value="3.24 µM"
compound=COc1ccc(CN2CCC(C(=O)Nc3ccc(Oc4ccccc4)nc3)CC2)cc1F result_value="6.97 µM"
compound=COc1cc2c(cc1OC)[C@@H]1C(=O)c3ccc4c(c3O[C@@H]1CO2)C[C@H](C(C)C)O4 result_value="0.0123 µM"
compound=Cc1ccc(Oc2ccc(OCC(=O)Nc3ccncc3)cc2)cc1 result_value="0.428 µM"
compound=Cc1ccccc1Cn1c(C)nc2ccccc21 result_value="3.41 µM"
compound=Nc1cc(-c2ccc(Br)cc2)nn1Cc1ccccc1 result_value="3.62 µM"
compound=Cc1cc(CSc2ccccc2)ccc1NC(=O)c1ccc(CN2CCOCC2)cc1 result_value="0.529 µM"
compound=Cc1ccccc1-c1cc(C(=O)Nc2sc(C(=O)OC(C)C)c(C)c2C#N)c2ccccc2n1 result_value="1.13 µM"
compound=CC(C)(C)NC(=O)COC(=O)c1snc(C(=O)NC2CCCCC2)c1N result_value="3.19 µM"
compound=O=C(Cc1ccc(Cl)cc1Cl)Nc1ccncc1Cl result_value="3.89 µM"
compound=COc1ccc(-n2c(C)cc(C(=O)COC(=O)Cn3cnc4ccccc43)c2C)cc1 result_value="> 29.9 µM (inactive)"
compound=CNc1ccccc1C(C)(C)c1cc(-c2ccc(F)cc2)no1 result_value="3.83 µM"
compound=Fc1ccc(NC(=S)N2CCCN(c3ccc(C(F)(F)F)cn3)CC2)c(F)c1 result_value="0.402 µM"
compound=Cc1cc(C(=O)CSc2nc(N)cc(=O)[nH]2)c(C)n1-c1ccc(OC(F)F)cc1 result_value="1.35 µM"

----------
# TESTED TARGET: Galanin receptor type 3 (Homo sapiens) (UniProt O60755)
# ASSAY NAME: human galanin receptor 3 blockers, IC50 – cell-based, fluorescence, dose response, late-stage follow-up (AID 743095)
# CONDITION PARAMETERS: GalR3 cell line, fluorescence antagonist assay
pIC50: −log10 of the molar value.
Listed compounds paired with reported pIC50
READOUT TYPE: pIC50

compound=NC(=O)c1nnn(Cc2cc(Cl)c(C(=O)c3ccc(Cl)cc3)c(Cl)c2)c1N result_value=5.46
compound="O=C(CSc1nnnn1C1CC2CCC1C2)Nc1ccnc2ccccc12 (stereo unspecified)" result_value=6.85
compound="CC(C)(C)c1ccc(-n2ncc3c2CCCC3NC(=O)C2(C(N)=O)CC2)cc1 (stereo unspecified)" result_value=5.70
compound=COc1ccc(OC)c(CCNC(=O)Cn2nc(C)c3c(C)n(-c4ccc(C)cc4)nc3c2=O)c1 result_value=5.42
compound=CCOc1cc(S(=O)(=O)NCc2ccncc2)ccc1Cl result_value=6.57
compound=Nc1nonc1-n1nnc(C(=O)N/N=C/c2cc(Br)ccc2O)c1CSC1=NCCS1 result_value=5.20
compound=O=C(CSc1nnc(Cn2nnc3ccccc32)o1)N(Cc1ccc(F)cc1)c1ccccc1 result_value=5.91
compound=Cn1nc(C(C)(C)C)cc1C(=O)NCc1ccc(N2CCCC2=O)cc1 result_value=5.28
compound=CCCCc1ccc(NC(=O)c2ccc(N(C)S(C)(=O)=O)cc2)cc1 result_value=6.16
compound=CCOC(=O)Cc1csc(NC(=O)c2cc(=O)c3ccccc3o2)n1 result_value=5.24
compound="CSc1ccc(C(=O)C2CCCN(C(=O)CCc3c(C)nn(C)c3C)C2)cc1 (stereo unspecified)" result_value=5.38

----------
# TESTED TARGET: Galanin receptor type 3 (Homo sapiens) (UniProt O60755)
# ASSAY NAME: human galanin receptor 3 blockers, IC50 – cell-based, fluorescence, dose response, late-stage follow-up (AID 743095)
# CONDITION PARAMETERS: GalR3 cell line, fluorescence antagonist assay
Activity calls are given as the source filed them. No rule for the calls is given here.
Labels: active, inactive

molecule=COc1ccc(C(=O)CSc2nnc(Cn3cnc4ccccc43)o2)cc1 tested_target="Galanin receptor type 3 (Homo sapiens) (UniProt O60755)" assigned_class=active
molecule="CC1(C)CC2CC(C)(CN2S(=O)(=O)c2ccc(C(=O)Nc3cccc(S(=O)(=O)N4CCOCC4)c3)cc2)C1 (stereo not drawn)" tested_target="Galanin receptor type 3 (Homo sapiens) (UniProt O60755)" assigned_class=active
molecule=CC(=O)c1cn(CC(=O)NCCc2c[nH]c3ccccc23)c2ccccc12 tested_target="Galanin receptor type 3 (Homo sapiens) (UniProt O60755)" assigned_class=active
molecule=CC(=O)c1c(C)[nH]c(C(=O)COc2cc(C)ccc2C(C)C)c1C tested_target="Galanin receptor type 3 (Homo sapiens) (UniProt O60755)" assigned_class=active
molecule=O=S(=O)(NCc1ccncc1)c1ccc(Br)s1 tested_target="Galanin receptor type 3 (Homo sapiens) (UniProt O60755)" assigned_class=active
molecule=Cc1cccc(Cl)c1NC(=O)N1CCCN(c2nc3ccc(Cl)cc3s2)CC1 tested_target="Galanin receptor type 3 (Homo sapiens) (UniProt O60755)" assigned_class=active
molecule=COc1ccc(NS(=O)(=O)c2ccc(NC(=O)c3ccc(CN4CCOCC4)cc3)cc2)cc1 tested_target="Galanin receptor type 3 (Homo sapiens) (UniProt O60755)" assigned_class=active
molecule=Cc1nn(C)c(C)c1CN(C)S(=O)(=O)c1ccc2ccccc2c1 tested_target="Galanin receptor type 3 (Homo sapiens) (UniProt O60755)" assigned_class=active
molecule=Cc1oc(-c2ccc(Cl)cc2)nc1CSCC(=O)NC1CCN(Cc2ccccc2)CC1 tested_target="Galanin receptor type 3 (Homo sapiens) (UniProt O60755)" assigned_class=active
molecule=COc1cc(CSc2nnnn2-c2ccc(C)cc2)cc(OC)c1OC tested_target="Galanin receptor type 3 (Homo sapiens) (UniProt O60755)" assigned_class=active
molecule=Cc1nn(C)c(Nc2ccc(Br)cc2)c1Br tested_target="Galanin receptor type 3 (Homo sapiens) (UniProt O60755)" assigned_class=active
molecule=Cc1[nH]c(=O)c(C#N)cc1-c1ccccc1 tested_target="Galanin receptor type 3 (Homo sapiens) (UniProt O60755)" assigned_class=inactive
molecule=Cc1nc2ccccc2n1Cc1ccc(Cl)cc1 tested_target="Galanin receptor type 3 (Homo sapiens) (UniProt O60755)" assigned_class=active
molecule=NC(=O)c1c(-c2ccc(Cl)cc2Cl)csc1NC(=O)Cc1ccccc1 tested_target="Galanin receptor type 3 (Homo sapiens) (UniProt O60755)" assigned_class=active
molecule="CCCOC(=O)c1ccc(OCC(O)Cn2c(C)nc3ccccc32)cc1 (stereo not drawn)" tested_target="Galanin receptor type 3 (Homo sapiens) (UniProt O60755)" assigned_class=active
molecule=COc1ccc(CCNc2ncnc3sccc23)cc1OC tested_target="Galanin receptor type 3 (Homo sapiens) (UniProt O60755)" assigned_class=active
molecule=CCCCCn1c(=O)[nH]c2cc(C(=O)N3CCN(Cc4ccc5c(c4)OCO5)CC3)ccc2c1=O tested_target="Galanin receptor type 3 (Homo sapiens) (UniProt O60755)" assigned_class=active
molecule=COc1ccc(CN(C)c2ccc(S(=O)(=O)N3CCN(C)CC3)cc2[N+](=O)[O-])cc1OC tested_target="Galanin receptor type 3 (Homo sapiens) (UniProt O60755)" assigned_class=active
molecule=S=C(NCCc1ccccc1)Nc1cccc2cnccc12 tested_target="Galanin receptor type 3 (Homo sapiens) (UniProt O60755)" assigned_class=active
molecule=CCCOc1ccc(CSc2nc3ccccc3[nH]2)cc1 tested_target="Galanin receptor type 3 (Homo sapiens) (UniProt O60755)" assigned_class=active
molecule=CC(C)(C)c1ccc(C(=O)Nc2ccc(Oc3cccnc3)nc2)cc1 tested_target="Galanin receptor type 3 (Homo sapiens) (UniProt O60755)" assigned_class=active
molecule=CC(=O)c1ccc(N2CCN(C(=S)Nc3ccc(Oc4ccccc4)cc3)CC2)cc1 tested_target="Galanin receptor type 3 (Homo sapiens) (UniProt O60755)" assigned_class=active
molecule=COc1cccc2[nH]c3c(N4CCC(C)CC4)ncnc3c12 tested_target="Galanin receptor type 3 (Homo sapiens) (UniProt O60755)" assigned_class=active
